measurementTarget: T1, dopamine D1 receptor, C-terminally tagged with Renilla luciferase variant 8, P21728
T1 chain: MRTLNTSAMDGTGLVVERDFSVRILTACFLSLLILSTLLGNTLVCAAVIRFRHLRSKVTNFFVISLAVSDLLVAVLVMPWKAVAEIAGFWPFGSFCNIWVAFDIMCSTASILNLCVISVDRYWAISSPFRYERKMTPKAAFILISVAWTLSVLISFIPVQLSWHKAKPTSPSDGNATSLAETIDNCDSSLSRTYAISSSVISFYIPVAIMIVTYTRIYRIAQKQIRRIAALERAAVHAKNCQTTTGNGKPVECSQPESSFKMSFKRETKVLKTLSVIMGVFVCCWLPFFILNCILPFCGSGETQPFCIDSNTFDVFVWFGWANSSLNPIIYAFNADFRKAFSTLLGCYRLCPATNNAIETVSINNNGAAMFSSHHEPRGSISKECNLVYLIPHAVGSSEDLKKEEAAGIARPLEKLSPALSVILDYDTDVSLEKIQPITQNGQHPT
assayMethodText: BRET
testConditions: chain shown with the change; HEK293 arrestin 2/3 KO cells; agonist-induced minus basal BRET; average at 10 and 15 min; parent: est. 0.032; read off a plot
valueKind: response

binder	reportedResult
Venus-tagged arrestin-3 A87V base mutant, P32120 E157A (protein) MGEKPGTRVFKKSSPNCKLTVYLGKRDFVDHLDKVDPVDGVVLVDPDYLKDRKVFVTLTCAFRYGREDLDVLGLSFRKDLFIANYQVFPPTPNPPRPPTRLQERLLRKLGQHAHPFFFTIPQNLPCSVTLQPGPEDTGKACGVDFEIRAFCAKSLEAKSHKRNSVRLVIRKVQFAPEKPGPQPSAETTRHFLMSDRSLHLEASLDKELYYHGEPLNVNVHVTNNSTKTVKKIKVSVRQYADICLFSTAQYKCPVAQVEQDDQVSPSSTFCKVYTITPLLSNNREKRGLALDGKLKHEDTNLASSTIVKEGANKEVLGILVSYRVKVKLVVSRGGDVSVELPFVLMHPKPHDHIALPRPQSAA	0.042
Venus-tagged arrestin-3 A87V base mutant, P32120 K313A (protein) MGEKPGTRVFKKSSPNCKLTVYLGKRDFVDHLDKVDPVDGVVLVDPDYLKDRKVFVTLTCAFRYGREDLDVLGLSFRKDLFIANYQVFPPTPNPPRPPTRLQERLLRKLGQHAHPFFFTIPQNLPCSVTLQPGPEDTGKACGVDFEIRAFCAKSLEEKSHKRNSVRLVIRKVQFAPEKPGPQPSAETTRHFLMSDRSLHLEASLDKELYYHGEPLNVNVHVTNNSTKTVKKIKVSVRQYADICLFSTAQYKCPVAQVEQDDQVSPSSTFCKVYTITPLLSNNREKRGLALDGKLKHEDTNLASSTIVKEGANAEVLGILVSYRVKVKLVVSRGGDVSVELPFVLMHPKPHDHIALPRPQSAA	0.033
Venus-tagged arrestin-3 A87V base mutant, P32120 G65del (protein) MGEKPGTRVFKKSSPNCKLTVYLGKRDFVDHLDKVDPVDGVVLVDPDYLKDRKVFVTLTCAFRYREDLDVLGLSFRKDLFIANYQVFPPTPNPPRPPTRLQERLLRKLGQHAHPFFFTIPQNLPCSVTLQPGPEDTGKACGVDFEIRAFCAKSLEEKSHKRNSVRLVIRKVQFAPEKPGPQPSAETTRHFLMSDRSLHLEASLDKELYYHGEPLNVNVHVTNNSTKTVKKIKVSVRQYADICLFSTAQYKCPVAQVEQDDQVSPSSTFCKVYTITPLLSNNREKRGLALDGKLKHEDTNLASSTIVKEGANKEVLGILVSYRVKVKLVVSRGGDVSVELPFVLMHPKPHDHIALPRPQSAA	0.019
Venus-tagged arrestin-3 A87V base mutant, P32120 F245A (protein) MGEKPGTRVFKKSSPNCKLTVYLGKRDFVDHLDKVDPVDGVVLVDPDYLKDRKVFVTLTCAFRYGREDLDVLGLSFRKDLFIANYQVFPPTPNPPRPPTRLQERLLRKLGQHAHPFFFTIPQNLPCSVTLQPGPEDTGKACGVDFEIRAFCAKSLEEKSHKRNSVRLVIRKVQFAPEKPGPQPSAETTRHFLMSDRSLHLEASLDKELYYHGEPLNVNVHVTNNSTKTVKKIKVSVRQYADICLASTAQYKCPVAQVEQDDQVSPSSTFCKVYTITPLLSNNREKRGLALDGKLKHEDTNLASSTIVKEGANKEVLGILVSYRVKVKLVVSRGGDVSVELPFVLMHPKPHDHIALPRPQSAA	0.042

Source: paper PMC6420155
